# assay: DLS size and polydispersity of hEPO mRNA lipid nanoparticles
# Assay type: physicochemical
# condition.notes: Table 3, further LNPs; hEPO mRNA LNP, Cationic Lipid:DMG-PEG2000:Cholesterol:DOPE=40:1.5:28.5:30, N/P ratio 4, Process A
Please go through the items and note down their PDI.
Give the figure by itself; no unit, no explanation.

Identify PDI associated with the compound CCCCCCCCCCCOC(=O)CCCC(O)CN(CCCCN(C)C(=O)CN(C)CC(=O)N(C)CCCCN(CC(O)CCCCCC(=O)OC(CCCCCCCC)CCCCCCCC)CC(O)CCCC(=O)OCCCCCCCCCCC)CC(O)CCCCCC(=O)OC(CCCCCCCC)CCCCCCCC (stereo not shown) [Compound LXXVII]
0.137

Identify PDI associated with the compound CCCCCCCCCCC(O)CN(CCCOC(=O)N[C@@H](Cc1ccccc1)C(=O)OCCCN(CC(O)CCCCCCCCCC)CC(O)CCCCCCCCCC)CC(O)CCCCCCCCCC (stereo partly shown) [Compound XCVII]
0.101

Identify PDI associated with the compound CCCCCCCCCCC(O)CN(CCCOC(=O)N[C@@H](Cc1c[nH]cn1)C(=O)OCCCN(CC(O)CCCCCCCCCC)CC(O)CCCCCCCCCC)CC(O)CCCCCCCCCC (stereo partly shown) [Compound CIII]
0.126

Identify PDI associated with the compound CCCCCCCCCCC(=O)OCCCCC(O)CN(CCCCNC(=O)CC(C)(O)CC(=O)NCCCCN(CC(O)CCCCCOC(=O)C(CCCCCCCC)CCCCCCCC)CC(O)CCCCOC(=O)CCCCCCCCCC)CC(O)CCCCCOC(=O)C(CCCCCCCC)CCCCCCCC (stereo not shown) [Compound XCIV]
0.085

Values from patent US20260216368A1
